These measurements were taken from paper PMC10786891.

# system_under_test: T1, EsCas13d, nuclease-dead (Eubacterium siraeum, UniProt B0MS50, R295A;H300A;R849A;H854A)
# T1 sequence: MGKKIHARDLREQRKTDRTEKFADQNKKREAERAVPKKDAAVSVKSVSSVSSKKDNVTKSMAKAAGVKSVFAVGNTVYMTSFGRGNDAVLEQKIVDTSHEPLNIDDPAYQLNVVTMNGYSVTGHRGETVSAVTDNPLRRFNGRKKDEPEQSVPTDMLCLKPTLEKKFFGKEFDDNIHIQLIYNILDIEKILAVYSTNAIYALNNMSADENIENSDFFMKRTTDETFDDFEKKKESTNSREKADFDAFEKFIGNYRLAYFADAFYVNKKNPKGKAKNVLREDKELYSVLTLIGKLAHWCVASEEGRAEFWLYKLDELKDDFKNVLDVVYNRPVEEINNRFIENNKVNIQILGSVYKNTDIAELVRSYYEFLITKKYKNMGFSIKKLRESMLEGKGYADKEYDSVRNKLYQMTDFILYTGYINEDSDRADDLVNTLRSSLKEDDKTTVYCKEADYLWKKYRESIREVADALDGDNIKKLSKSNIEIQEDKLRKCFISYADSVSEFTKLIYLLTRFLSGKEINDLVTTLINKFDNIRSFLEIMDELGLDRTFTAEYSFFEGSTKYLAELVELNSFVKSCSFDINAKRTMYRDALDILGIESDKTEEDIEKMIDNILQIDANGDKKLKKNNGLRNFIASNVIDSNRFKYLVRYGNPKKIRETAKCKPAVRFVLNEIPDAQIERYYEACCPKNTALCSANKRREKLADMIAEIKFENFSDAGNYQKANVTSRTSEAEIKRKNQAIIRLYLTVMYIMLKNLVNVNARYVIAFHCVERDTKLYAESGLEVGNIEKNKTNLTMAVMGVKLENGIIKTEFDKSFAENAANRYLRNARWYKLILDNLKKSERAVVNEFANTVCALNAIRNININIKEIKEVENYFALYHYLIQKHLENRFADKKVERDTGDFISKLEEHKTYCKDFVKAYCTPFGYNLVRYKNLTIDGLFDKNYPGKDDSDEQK
# assay_text: crRNA (strand 1, pre-loaded); Mg2+; 40 mM Tris-HCl pH 7.5, 150 mM NaCl, 6 mM MgCl2, 1 mM DTT, 0.1% Tween-20, 0.2 mg/ml BSA; 25 C; 10 min per concentration, then washed
# condition: tags: His6-TwinStrep-SUMO cleaved; N-terminal SNAP kept (SNAP-Surface 488); label: 3' end held by stalled T7 RNA polymerase
readout_kind: pKd
pKd (log units): -log10 of the concentration in mol/L.

Note pKd for the binder shown: target 1 insU 3' of 13,insA 3' of 13 (mixed) RNA 1: CACCCGUGCAAAAAUGCAGGGGUCUAAAACUGAGCGGAUAACCUCUCUAUGG RNA 2: GGGAAUGGAUCCACAUCUACGAAUUCGUACCAUAGAGAGUAGUUAUCCGCUCACCGAGAUCGGAAGAGCACACGU
8.36

Note pKd for the binder shown: target 3 insC 3' of 8,insA 3' of 7 (mixed) RNA 1: CACCCGUGCAAAAUUGCAGGGGUCUAAAACGACCUGAAUAUUUCAGAUCAAA RNA 2: GGGAAUGGAUCCACAUCUACGAAUUCGUUUUUGAUCUGAAAUAUCUACAGGUCUGCAGAUCGGAAGAGCACACGU
7.39

Note pKd for the binder shown: target 1 A16U,G17C (mixed) RNA 1: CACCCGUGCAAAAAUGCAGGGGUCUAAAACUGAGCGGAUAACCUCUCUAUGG RNA 2: GGGAAUGGAUCCACAUCUACGAAUUCGUACCAUACUGAGGUUAUCCGCUCACCGAGAUCGGAAGAGCACACGU
7.06

Note pKd for the binder shown: target 1 insG 3' of 3,insU 3' of 1 (mixed) RNA 1: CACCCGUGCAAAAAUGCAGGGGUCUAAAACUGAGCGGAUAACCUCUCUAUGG RNA 2: GGGAAUGGAUCCACAUCUACGAAUUCGUACCAUAGAGAGGUUAUCCGCUGCAUCCGAGAUCGGAAGAGCACACGU
8.04
